Cmax values, listed per item
assay: Pharmacokinetics of the compounds in SD rats (Example 36); assay type: in vivo; settings: Intravenous injection administration - 1 mg/kg; SD rat plasma
Counter-ions that a name gives are not always drawn.
Enter your answer as a number in ng/mL; do not include the unit.

Observe how each entry below is paired with its result.
molecule: COCCOC(=O)c1ccnc(-c2ccc3c(c2)c(C#N)nn3C(C)C)c1 [Compound 31, hydrobromide]
test-readout: Cmax
measured-value: 904
//
molecule: CC(=O)OCCOC(=O)c1ccnc(-c2ccc3c(c2)c(C#N)nn3C(C)C)c1
test-readout: Cmax
measured-value: 712
//
molecule: COC(=O)c1cnn(-c2ccc3c(c2)c(C#N)nn3C(C)C)c1
test-readout: Cmax
measured-value: 554

Read the next record carefully.
In plain terms, CC(C)n1nc(C#N)c2cc(-c3cc(C(=O)OCCCCO[N+](=O)[O-])ccn3)ccc21 has a documented Cmax of 714

###

Assay: Pharmacokinetics of the compounds in SD rats (Example 36)
Type: in vivo
Settings: po; Gavage administration - 10 mg/kg; SD rat plasma
Method: Preparation of compound stock solution: An appropriate amount of compound solid powder was be weighed and added in a certain amount of DMSO, and vortex ultrasound to obtain a 10 mg/mL stock solution. […] Non-compartmental model-related parameters were calculated by WinNonlin® Professional software.
AUC(0-inf) by entry:
Write down the numeric answer in ng·h/mL and omit the unit.

compound: CCOC(=O)c1cnn(-c2ccc3c(c2)c(C#N)nn3C(C)C)c1 [Compound 2]
AUC(0-inf), ng·h/mL: 30100
//
compound: CC(C)n1nc(C#N)c2cc(-c3cc(C(=O)OCCCCO[N+](=O)[O-])ccn3)ccc21 [Compound 39]
AUC(0-inf), ng·h/mL: 18300

From here, focus on the item given below.
Measured AUC(0-inf) of CCOC(=O)OC(C)OC(=O)c1ccnc(-c2ccc3c(c2)c(C#N)nn3C(C)C)c1 (stereo not drawn) [Compound 26] : 31000
